assay-text: chemical genetic growth profiling, strain panel (AID 1159580);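 also: tested at 20 µM; growth read once vehicle control cultures reached saturation at 30 °C; 1 = growth at the plate median or of vehicle wells; lower values mean less growth of the strain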
measurement-parameters: S. cerevisiae deletion strains, growth OD, locus YKL067W, strain YNK1
About 2,000 (36%) of roughly 5,500 compounds were called active. Roughly 18% stayed inconclusive and do not appear here. Rule as the data show it: active = normalized growth mostly below about 0.91 (no sharp cut-off); inconclusive = no clear call, values can overlap the other calls; inactive = mostly above about 0.92. The list shows a part of the results.
Could you please pick one outcome from this set? class 1 (active), class 0 (inactive)

Q) Would you mind telling me which call this test gave CCOC(=O)NC(=S)NC12CC3CC(CC(C3)C1)C2 ?
A) class 0

Q) Let us now turn to Cc1cc(C(=O)O/N=C(/N)c2ccc(C(C)(C)C)cc2)no1
A) class 0

Q) Can you handle NC(=NC(=O)c1ccc(Cl)cc1)c1cccs1 next?
A) class 0

Q) Subsequent entry: CC1(C)C/C(=N/Nc2ccc(C(F)(F)F)cc2)c2cc(C(C)(C)C)c(O)c(O)c2O1
A) class 1

Q) Then this compound: N/C(=N/OC(=O)c1ccc(Cl)cc1)c1ccc(F)cc1F
A) class 1

Q) And Nc1cc(-c2ccc(OC(F)(F)F)cc2)nn1-c1ccc(Cl)c(Cl)c1 ?
A) class 1

Q) Same question for CN(C)/C=C/C(=O)c1ccc(C#Cc2ccccc2)cc1 please.
A) class 0

Q) Then this compound: CC(C)(O)C#Cc1ccc(/C=N\Nc2c(Cl)cc(Cl)cc2Cl)cc1
A) class 0

Q) Quick one: CCCC1c2ccsc2CCN1C(=S)Nc1ccc(Cl)cc1Cl (centres undefined)
A) class 0
